- System: SW480 cells
- protocol notes: MTT cell viability assay, SW480
- Format: cell-based
- conditions: Homo sapiens, 72 h incubation, mean ± SD
pIC50: −log10 of the molar value.
# key: entry, value: pIC50
observed property: pIC50

[
  {
    "compound": "CC(C)c1cc2c(c(O)c1O)[C@@]1(C(=O)O)CCCC(C)(C)[C@@H]1CC2",
    "recorded result": 4.66
  },
  {
    "compound": "CC(=O)Oc1c(C(C)C)cc2c(c1OC(C)=O)[C@@]1(NC(=O)NCCc3ccccc3)CCCC(C)(C)[C@@H]1CC2",
    "recorded result": 5.07
  },
  {
    "compound": "CC(=O)Oc1c(C(C)C)cc2c(c1OC(C)=O)[C@@]1(NC(=O)NCCc3cccc(Cl)c3)CCCC(C)(C)[C@@H]1CC2",
    "recorded result": 5.21
  },
  {
    "compound": "CC(=O)Oc1c(C(C)C)cc2c(c1OC(C)=O)[C@@]1(NC(=O)NCCCN(C)c3ccccc3)CCCC(C)(C)[C@@H]1CC2",
    "recorded result": 5.12
  }
]
